- Tested on: Aspergillus niger
- Test details: Antimicrobial test against Aspergillus niger
- Format: cell-based
- Study conditions: 96 h, Vogel medium, 25° C., 4 days in the dark, turbidity at 405 nm, read-out: growth inhibition rate
- Procedure: Spores of Aspergillus niger were added to and dispersed in a Vogel medium, and a dihydropyrimidine compound dissolved in dimethyl sulfoxide was added and mixed thereto at 25 ppm. […] After the cultivation, the turbidity at a wavelength of 405 nm was measured by a microplate reader and compared with that in the untreated case to determine the growth inhibition of Aspergillus niger (%) was determined.
Field: inhibition at 25 ppm. Provide a value for each of the molecules that follow.

Reported inhibition at 25 ppm for CCO/N=C(\C)c1cn(CC(O)c2cc(F)ccc2OC)c(=O)n(C[C@@H](NC(=O)C(C)C)C(C)C)c1=O (stereo partly drawn) was ≥ 50%

Summary for this molecule, CCOc1ccccc1C(O)Cn1cc(/C(C)=N/OC(C)C)c(=O)n(C[C@H](C)NC(=O)C(C)C)c1=O (stereo partly drawn) : inhibition at 25 ppm is ≥ 50%

Kindly note the recorded inhibition at 25 ppm for COc1ccc(F)cc1C(O)Cn1cc(/C(C)=N/OC(C)C)c(=O)n(C[C@H](CC(C)C)NC(=O)C(C)C)c1=O (stereo partly drawn) , which is ≥ 50%

The reported numbers originate from patent US12593845B2.
